Assay: In vivo biodistribution in mice
Parameters: species or system normal CD-1 male mice
Conditions: iv, 120 min post injection
Method: Biodistribution experiments were performed by intravenously administering ^68Ga labeled 1a-h, 2, 3, BPAMD, and [^18F]NaF into normal, healthy male CD-1 mice (25-30 g). The injection activity was 20-30 μCi/animal. […] Organs of interest were harvested, weighed, and counts of radioactivity were measured by a gamma counter. The biodistribution of each sample was calculated as a percentage of the injected dose per gram of wet tissue weight (% ID/g). […]
property_name: Biodistribution: Spleen (% dose/g)
Just the number please, in % dose/g, no unit attached.

compound	experimental_value
[18F-].[Na+] [[^18F]NaF, reference compound]	0.03

For the compound O=C([O-])CN(CCN(CC(=O)[O-])Cc1cc(CCC(=O)NC(P(=O)(O)O)P(=O)(O)O)ccc1[O-])Cc1cc(CCC(=O)NC(P(=O)(O)O)P(=O)(O)O)ccc1[O-].[68Ga+3] [[^68Ga]2] , give its measured Biodistribution: Spleen value.
0.43

For the compound O=C([O-])CN(CCN(CC(=O)[O-])Cc1cc(CCC(=O)NC(P(=O)(O)O)P(=O)(O)O)ccc1[O-])Cc1cc(CCC(=O)NCC(=O)O)ccc1[O-].[68Ga+3] [[^68Ga]1c] , give its measured Biodistribution: Spleen value.
0.71
